Value source: patent US7557123B2

Examples of molecules with documented Solubility follow.
# protocol notes: Solubility of the compound in water (buffer pH 7.0)
# Type: physicochemical
# recorded conditions: 25 mg in 1.0 ml buffer pH 7.0, shaken at 25° C. for 1 hr, filtrate by HPLC
The answer should read as a number with its unit following.

// known answers, use as guide
| molecule | Solubility |
| --- | --- |
| CC=CC=CC(=O)N1Cc2cc(OCCc3nc(/C=C/CCC)oc3C)ccc2C[C@H]1C(=O)O (stereo in doubt) | 10.0 mg/mL |
| CC(C)(C)N.CC=CC=CC(=O)N1Cc2cc(OCCc3nc(/C=C/COC)oc3C)ccc2C[C@H]1C(=O)O (stereo in doubt) | 20.5 mg/mL |
| CC(C)(C)N.CC=CC=CC(=O)N1Cc2cc(OCCc3nc(/C=C/CCC(C)C)oc3C)ccc2C[C@H]1C(=O)O (stereo in doubt) | 17.3 mg/mL |

Look up Solubility: CC(C)(C)N.CC=CC=CC(=O)N1Cc2cc(OCCc3nc(/C=C/C4CCCCC4)oc3C)ccc2C[C@H]1C(=O)O (stereo in doubt)
18.7 mg/mL
